Examples of compounds with documented NADPH fluorescence slope follow.
Target Of Assay: Voltage-gated potassium channel subunit beta-2 (Rattus norvegicus)
Measurement Protocol: enhancers of rat Kvbeta2 NADPH turnover – biochemical, NADPH fluorescence, primary screen (AID 623);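 further: fluorescence intensity change per second fitted from 20 to 320 s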
Stated Conditions: Recombinant KvBeta, NADPH fluorescence decrease slope, 10 min; at 10 µM; active compounds read low
Output: the number by itself.

Some solved cases for reference:
Incoming: Quick one: NADPH fluorescence slope for Cc1ccc(O)c(-c2cc(C(=O)Nc3ccc(S(=O)(=O)N4CC(C)OC(C)C4)cc3)[nH]n2)c1 (stereo unspecified) ?
Outgoing: -0.000199

Incoming: Any idea what its NADPH fluorescence slope is? The compound is CCCC(=O)Nc1cc(-c2nnc(OC)c3ccccc23)ccc1N1CCOCC1
Outgoing: -3.3e-06

Incoming: I would be grateful if you could share the reported NADPH fluorescence slope for Nc1[nH]nc2nc(N3CCCC3)nc(-c3ccccc3)c12 .
Outgoing: -3.4e-05

Incoming: Can you share its NADPH fluorescence slope? I mean this compound: O=C(C1CCCO1)N1CCN(C(c2ccccc2)c2ccccc2)CC1 (stereo unspecified)
Outgoing: -2.6e-05

Incoming: Which measured NADPH fluorescence slope value corresponds to Cc1nc2nc(Cc3ccccc3)[nH]n2c(=O)c1Cc1ccccc1 ?
Outgoing: -4.3e-05

---
Incoming: Fill in the blank: the reported NADPH fluorescence slope of Cc1ccc(NC(=O)Cn2cccc2)cc1Cl is ____.
Outgoing: -5.7e-05

Incoming: Look at this compound and give its reported NADPH fluorescence slope. O=C(NCCC1=CCCCC1)C1CCN(S(=O)(=O)c2cnc[nH]2)CC1
Outgoing: -4.7e-05

Incoming: NADPH fluorescence slope lookup needed for COc1ccccc1C(=O)N1CCN(CCc2ccccc2)CC1 , thanks.
Outgoing: 1.9e-05

Incoming: Quick one: NADPH fluorescence slope of O=C(Nc1ccc(F)cc1F)NC1CC(=O)N(Cc2ccccc2)C1 (stereo unspecified) ?
Outgoing: -1.6e-05

Incoming: I would be grateful if you could share the reported NADPH fluorescence slope for Cc1c(CNCc2cccs2)c(C(=O)O)c(C)n1Cc1ccccc1 .
Outgoing: -7.6e-05

Incoming: So what's the measured NADPH fluorescence slope for this one? CCN1C(=O)/C(=C2\C=Cc3ccccc3N2CC)OC1=S
Outgoing: -4.6e-05

* * *

Measured inhibition values are reported for all entries that follow.
Measurement Protocol: TLR3 IRF3 reporter activation blockers – cell-based, poly I:C stimulus, luciferase, 10K MLSCN set, primary screen (AID 602277)
Stated Conditions: HEK293-TLR3 RL24 IRF3 luciferase reporter, at 10 µM, active compounds read high
Provide only the numeric value, understood in %.

Incoming: Sample Cc1ccc(S(=O)(=O)NCC(=O)OCC(=O)Nc2ncc(Cl)cc2Cl)cc1 — what was its inhibition?
Outgoing: 25.7

Incoming: Given CCOc1ccc(NC(=O)CCN2CCN(c3ccccc3)CC2)cc1 , state its recorded inhibition.
Outgoing: 16.6

* * *

Measurement Protocol: endothelial E-selectin expression blockers – imaging, HUVEC, immunofluorescence, MLSMR starter and 10KST1 sets, primary screen (AID 487);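 further: signal is fraction of cell area covered by stained E-selectin grains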
Stated Conditions: HUVEC TNFalpha-induced E-selectin immunofluorescence imaging, at 2 µM; active compounds read high
Classify as follows. Reported inhibition greater than or equal to -30%: Fulfilled. Reported inhibition below: Not fulfilled.

// below: answered molecules
Incoming: Given Cc1ccc(-c2cc(C(=O)Nc3cc(C)ccc3C)[nH]n2)c(O)c1 , state whether its inhibition is at least -30%.
Outgoing: Not fulfilled

Incoming: Determine whether measured inhibition meets or exceeds -30% for C=CCn1cnc2c(NCc3ccccc3)ncnc21
Outgoing: Fulfilled

Incoming: Determine whether measured inhibition meets or exceeds -30% for COc1ccc(N(CC(=O)Nc2ccc3c(c2)OCCO3)S(=O)(=O)c2cccnc2)cc1
Outgoing: Not fulfilled

Incoming: Hello, I need to know if COc1cc(OC)cc(C(=O)NCCN2CCOCC2)c1 has measured inhibition not below -30%. Thanks!
Outgoing: Fulfilled

Incoming: Assess whether reported inhibition for COc1cc2c(cc1OC)CN(C(=O)CSc1nnc3scc(-c4ccccc4)n13)CC2 sits at -30% or higher.
Outgoing: Fulfilled

Incoming: inhibition >= -30% for COc1ccccc1CCNC(=O)C1CCCO1 (stereo unspecified) ?
Outgoing: Not fulfilled

Incoming: Form field: inhibition at least -30%? Entry: COc1nc(Oc2ccc(=O)n(C)n2)nc(N(C)C)n1
Outgoing: Not fulfilled

Incoming: hey, is inhibition for this one >= -30%? CC(=O)c1cccc(NC(=O)NCc2ccccn2)c1
Outgoing: Not fulfilled

***
Incoming: Does the molecule C=CS(=O)(=O)c1ccc(Oc2ccc(S(=O)(=O)C=C)cc2)cc1 have recorded inhibition that is -30% or more?
Outgoing: Fulfilled

Incoming: Could you please find out whether CC(C)Cn1c2c(c(O)c(C(=O)Nc3ncccc3O)c1=O)CCCC2 has inhibition that meets -30% or exceeds it?
Outgoing: Fulfilled

* * *

Target Of Assay: Alpha-2C adrenergic receptor (Homo sapiens) (UniProt P18825)
Sequence (P18825 whole entry, looked up): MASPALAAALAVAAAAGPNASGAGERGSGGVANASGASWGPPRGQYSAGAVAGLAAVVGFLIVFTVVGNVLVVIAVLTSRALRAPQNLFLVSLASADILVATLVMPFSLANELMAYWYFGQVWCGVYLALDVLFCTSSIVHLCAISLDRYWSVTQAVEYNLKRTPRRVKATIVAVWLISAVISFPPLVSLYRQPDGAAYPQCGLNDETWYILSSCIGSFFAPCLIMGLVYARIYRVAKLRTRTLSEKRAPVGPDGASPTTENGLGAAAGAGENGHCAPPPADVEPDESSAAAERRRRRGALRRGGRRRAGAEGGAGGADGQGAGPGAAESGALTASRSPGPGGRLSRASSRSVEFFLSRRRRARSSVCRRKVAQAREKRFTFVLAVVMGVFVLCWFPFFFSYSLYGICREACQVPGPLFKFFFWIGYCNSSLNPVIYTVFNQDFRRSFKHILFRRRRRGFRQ
Measurement Protocol: compounds altering alpha2C-coupled GIRK flux – cell-based, HEK293 alpha2C/GIRK1/2, thallium flux, primary screen (AID 624);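 further: slope of fluorescence ratio to pre-addition baseline per second over 15 to 24 s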
Stated Conditions: thallium flux BTC fluorescence, at 10 µM, actives lie on both sides
Activity calls are given as the source filed them.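 Rule for the calls: active = fluorescence slope after compound addition differing from the mean of all screened samples at 99.7% confidence, in either direction; inactive = the rest.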
Form entry, call: pick from Y = active, N = inactive

Some entries whose results are on file:
Incoming: Status in this test for NC(=O)C1CCN(C(=O)c2cc3n(n2)C(C(F)(F)F)CC(c2ccco2)N3)CC1 (centres undefined) ?
Outgoing: N

Incoming: Name the outcome recorded for CC(Sc1n[nH]c(=O)[nH]c1=O)C(=O)OCc1ccccc1 (centres undefined) in the assay.
Outgoing: N

Incoming: Query: recorded result category for CCCCCCNC(=O)c1c(N)n(/N=C/c2ccco2)c2nc3ccccc3nc12 in this test
Outgoing: N

Incoming: GET /call?item= O=C(NCCc1ccccc1)C1CCCN(S(=O)(=O)c2cccs2)C1 (centres undefined) returns the recorded outcome of this test.
Outgoing: N

Incoming: Field: outcome | Entry: Cc1[nH]nc(N=CC2=C(O)CC(C)(C)CC2=O)c1-c1ccc(Cl)cc1
Outgoing: N

Incoming: Assay result, entry COc1ccc(S(=O)(=O)Nc2ccc(S(=O)(=O)N3CCCCC3)cc2)cc1OC — outcome?
Outgoing: N

Incoming: Outcome? COc1ccc(NC(=O)CSc2nc3c(c(=O)n2-c2ccc(F)cc2)SCC3)c(OC)c1
Outgoing: N

Incoming: Dear all, I need the recorded test outcome for C=CCC1(O)C(=O)Nc2ccccc21 (centres undefined) , thank you.
Outgoing: N

Incoming: How was CC(=O)c1c(O)cc(C)n(Nc2nc(C)cc(C)n2)c1=O classified in this test?
Outgoing: N

Incoming: How did this test come out for O=C(NCc1ccccc1)N[C@@H](Cc1ccccc1)C(=O)O ?
Outgoing: N

Others:
Incoming: Look up the recorded call for Cc1cc(C)c2nc(C(F)(F)F)nc(NCCCN3CCCC3=O)c2c1 in this test.
Outgoing: N

Incoming: Look up the recorded call for O=C(Nc1cccc(OCC(=O)N2CCOCC2)c1)C1CCCCC1 in this test.
Outgoing: N

Incoming: Check the results log: what was the call for CCOC(=O)c1cc(-c2nnc(-c3ccc(Oc4ccccc4)cc3)o2)c(C)nc1C ?
Outgoing: Y

* * *

Target Of Assay: Muscarinic acetylcholine receptor M4 (Homo sapiens)
Measurement Protocol: M4-linked GIRK flux change, two-sided – cell-based, HEK293 M4/GIRK, thallium flux, BTC-AM, M4 allosteric agonist project, primary screen (AID 625);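 further: thallium influx through GIRK channels coupled to M4 in HEK293 cells with BTC-AM dye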
Stated Conditions: at 10 µM, actives lie on both sides
We begin with a simple list: items and their reported fluorescence slope.
// no unit, no text: just the number

Incoming: Look up fluorescence slope for this compound: CC(=O)C1=C(O)C(=O)N(Cc2ccco2)C1c1ccc(F)cc1 (stereo unspecified)
Outgoing: 0.00555

* * *

Listed next: entries and their corresponding inhibition.
Measurement Protocol: inhibitors of TNFa-induced NFkB p65 translocation, primary screen, imaging, HUVEC, MLSMR starter and 10KST1 sets (AID 438);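 further: compound added about 3h40 before a 20 min TNFalpha stimulation; signal is the nuclear over cytoplasmic p65 intensity ratio per well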
Stated Conditions: HUVEC TNFa-induced p65 nuclear translocation; at 2 µM, active compounds read high, 0% TNFa-plus-vehicle, 100% no-TNFa wells
Form entry: value (%) — number only.

Incoming: I'd like to know its inhibition. The molecule in question is O=C(Cn1cccc1C(=O)c1ccccc1)NCCN1CCOCC1
Outgoing: 12.5

* * *

Measurement Protocol: TLR3 IRF3 reporter activation blockers – cell-based, poly I:C stimulus, luciferase, 10K MLSCN set, primary screen (AID 602277)
Stated Conditions: HEK293-TLR3 RL24 IRF3 luciferase reporter, at 10 µM, active compounds read high
Quantity: inhibition (%)
The response must be a number in % with no trailing unit.

Record excerpt, results attached:
Incoming: # input compound: COc1cccc(-c2csc3nc[nH]c(=O)c23)c1 ; wanted: its inhibition
Outgoing: 2.24

Incoming: Can you share its inhibition? I mean this compound: CCCNC(=O)C1CC(=O)N(c2ccc(OCC(=O)Nc3cc(C)cc(C)c3)cc2)C1 (stereo unspecified)
Outgoing: 27.9

Incoming: Report inhibition for c1ccc(-c2cn3cccnc3n2)cc1 please.
Outgoing: -40.2

Incoming: If you can, please state the reported inhibition value of CCOC(=O)c1c(C)oc2ccc(NS(=O)(=O)c3ccc4c5c(cccc35)C(=O)N4)cc12 .
Outgoing: 2.01

Incoming: Reported inhibition, compound CC(=O)c1c(NCCc2ccccc2)cc(C)oc1=O : ____
Outgoing: 11

Incoming: Please give the measured inhibition for this compound: O=C(c1ccco1)c1nnn(Cc2ccccc2)c1-c1ccccc1
Outgoing: 0.479

Incoming: // inhibition lookup, key: CC1Cc2ccccc2N1C(=O)c1cnsn1 (stereo unspecified)
Outgoing: -3.1

Incoming: Which inhibition is reported for this compound? COc1ccc(CCNC(=O)CSc2nnc(CNc3ccc(Cl)cc3)o2)cc1OC
Outgoing: 19.4

Incoming: GET /values?readout=inhibition&item= COc1ccc(-c2nsc(SCC(=O)Nc3cc(C)on3)n2)cc1
Outgoing: 17.9

Incoming: Form field: reported inhibition of CCOC(=O)Cn1c(S(=O)(=O)Cc2ccccc2)nc2ccccc21
Outgoing: 30.4

Now consider a different compound.
Incoming: May I ask what inhibition has been recorded for O=C(c1ccc2ccccc2n1)N1CCN(c2ccccc2)CC1 ?
Outgoing: -4.71
